- System: SMN2-linked luciferase-reporter gene construct
- assay procedure: SMN Splice Reporter Assay (SMN2-linked luciferase reporter)
- Format: cell-based
- cond: cervical carcinoma cell lines, SMN2 splice luciferase reporter
Friendly reminder: EC50 below 0.2 µM is Satisfied, at or above is Not satisfied.

- compound: "COc1ccc2c(c1)C(=O)N(c1ccc3c(c1)N(C)CCN3C)C2 [Example 122436]"
  assigned class: "Not satisfied"

Query: Consider COc1ccc2c(c1)C(=O)N(c1ccc3ncn(C)c3c1)C2 [Example 120598] . Does its EC50 lie strictly below 0.2 µM?
Response: Satisfied

Query: Consider Cc1cc2cc(N3Cc4ccc(N(C)C)cc4C3=O)ccc2n1C [Example 123707] . Does its EC50 lie strictly below 0.2 µM?
Response: Satisfied

Query: Consider Cn1ccc2cc(N3Cc4cc(F)ccc4C3=O)ccc21 [Example 122316] . Does its EC50 lie strictly below 0.2 µM?
Response: Satisfied

Query: Consider COc1ccc2c(c1)C(=O)N(c1ccc3scnc3c1)C2 [Example 120785] . Does its EC50 lie strictly below 0.2 µM?
Response: Satisfied

Query: Consider Cn1ccc2ccc(N3Cc4c(Br)cccc4C3=O)cc21 [Example 120290] . Does its EC50 lie strictly below 0.2 µM?
Response: Not satisfied

* * *

- Test system: SMN2-linked luciferase-reporter gene construct
- assay procedure: SMN Splice Reporter Assay (SMN2-linked luciferase reporter)
- Assay type: cell-based
- cond: cervical carcinoma cell lines, SMN2 splice luciferase reporter
Exercise: state measured log10(EC50) for each of the compounds provided.
Values reflect log10 of reported EC50 (nM).

Examples with their reported log10(EC50) follow.
- smiles notation: "CC(=O)Nc1ccc2c(c1)CN(c1ccc3ccn(C)c3c1)C2=O"
  log10(EC50): 3.02
- smiles notation: "Cc1cccc2c1C(=O)N(c1ccc3c(ccn3C)c1)C2"
  log10(EC50): 2.21
- smiles notation: "O=C1c2cc3c(cc2CN1c1ccc(Br)cn1)OCCO3"
  log10(EC50): 2.14
- smiles notation: "Cn1ccc2ccc(N3Cc4ccc(N5CCCCC5)cc4C3=O)cc21"
  log10(EC50): 1.98
- smiles notation: "COCn1ccc2ccc(N3Cc4ccc(Br)cc4C3=O)cc21"
  log10(EC50): 2.49
- smiles notation: "COc1ccc2c(c1)C(=O)N(c1ccc3c(c1)n(C)c(=O)n3C)C2"
  log10(EC50): 2.92

As a next step, examine the compound that follows.
// field: log10(EC50); key: `COc1ccc2c(c1)C(=O)N(c1ccc3[nH]ccc3n1)C2` ; value = 2.35

* * *

- System: SMN2-linked luciferase-reporter gene construct
- assay procedure: SMN Splice Reporter Assay (SMN2-linked luciferase reporter)
- Format: cell-based
- cond: fold-increase of luciferase over baseline reading of transformed cells without any test compound
metric: Fold Increase
Answers are plain numbers.

- molecule: "Cc1ccc2c(c1)CN(c1ccc3c(ccn3C)c1)C2=O [Example 120780]"
  test system: "SMN2-linked luciferase-reporter gene construct"
  Fold Increase: 1.344
- molecule: "COc1ccc2c(c1)C(=O)N(c1ccc3cnn(C)c3c1)C2 [Example 120604]"
  test system: "SMN2-linked luciferase-reporter gene construct"
  Fold Increase: 1.441
- molecule: "O=C1c2cc(Br)ccc2CN1c1ccc2ncccc2c1 [Example 124033]"
  test system: "SMN2-linked luciferase-reporter gene construct"
  Fold Increase: 1.795

Please report Fold Increase for every entry that follows.
1. Cc1cc2ccc(N3Cc4ccc(OC(C)C)cc4C3=O)cc2n1C [Example 125098]
2. COc1ccc2c(c1)C(=O)N(c1ccc3c(c1)cc1n3CCC1)C2 [Example 124651]
3. CCCCOc1ccc2c(c1)C(=O)N(c1ccc3c(c1)cc(C)n3C)C2 [Example 124035]
4. O=C1c2cc3c(cc2CN1c1ccc2sccc2c1)OCCO3 [Example 118900]
5. Cn1ccc2cc(N3Cc4ccc(N5CCCC5)cc4C3=O)ccc21 [Example 122317]

Response:
1. 1.251
2. 1.452
3. 1.118
4. 1.399
5. 1.47

* * *

- System: SMN2-linked luciferase-reporter gene construct
- assay procedure: SMN Splice Reporter Assay (SMN2-linked luciferase reporter)
- Assay type: cell-based
- cond: cervical carcinoma cell lines, SMN2 splice luciferase reporter
metric: EC50 (nM)
Answers are plain numbers, in nM.

Please report EC50 for every entry that follows.
1. CCC(C)c1ccc2c(c1)C(=O)N(c1ccc3c(ccn3C)c1)C2 (centres unmarked)
2. COc1ccc2c(c1)C(=O)N(c1cnc3c(ccn3C)c1)C2
3. CN(C)c1ccc2c(c1)C(=O)N(c1ccc3cc[nH]c3c1)C2
4. COc1ccc2c(c1)C(=O)N(c1ccc3c(OC)ccnc3c1)C2

Response:
1. 101
2. 42
3. 4
4. 147

// field: EC50; key: `COc1ccc2c(c1)C(=O)N(c1ccc3c(N(C)C)ccnc3c1)C2` ; value = 5970
